Measured remaining activity at 100 µM accompanies every entry in the list below.
biological target: E. coli CsgA (Escherichia coli); construct: made in house; host or cells: E. coli NEB 3016 slyD::kan, pET11d; experiment: In vitro ThioflavinT assay of CsgA aggregation (CsgA ThT Assay); assay type: biochemical; conditions: read-out: CsgA ThT Assay (2 μM CsgA) % Control Bmax 100 μM, activity range, class symbol; CsgA 2 μM, white plates; compound 100 μM
Sequence (P28307 23-151): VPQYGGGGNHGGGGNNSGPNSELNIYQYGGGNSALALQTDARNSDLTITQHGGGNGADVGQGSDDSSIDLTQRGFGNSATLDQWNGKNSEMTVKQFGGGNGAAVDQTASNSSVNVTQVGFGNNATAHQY
measured_metric: remaining activity at 100 µM

• CC(C)NC(=O)c1c(Cc2cccc3ccccc23)c(-c2cccc(C(F)(F)F)c2)c2n(c1=O)C(C(=O)O)CN(C)S2(=O)=O (stereo not drawn) [Compound 157] = > 60%
• NC(=O)c1c(Cc2cccc3ccccc23)c(-c2cccc(C(F)(F)F)c2)c2n(c1=O)C(C(=O)O)CN2Cc1ccccc1 (stereo not drawn) [Compound 203] = > 60%
• CCCCN1CC(C(=O)O)n2c(c(-c3cccc(C(F)(F)F)c3)c(Cc3cccc4ccccc34)c(C(N)=O)c2=O)S1(=O)=O (stereo not drawn) [Compound 177] = 11 to 31%
• CCCOc1c(Cc2cccc3ccccc23)c(-c2cccc(C(F)(F)F)c2)c2n(c1=O)C(C(=O)O)CN(CCC)S2(=O)=O (stereo not drawn) [Compound 147] = > 60%
• CC(C)(C)c1ccc(Cc2c(-c3cccc(C(F)(F)F)c3)c3n(c(=O)c2Cl)C(C(=O)O)CN3Cc2ccccc2)cc1 (stereo not drawn) [Compound 216] = 31 to 60%
• CCc1c(Cc2cccc3ccccc23)c(-c2cccc(C(F)(F)F)c2)c2n(c1=O)C(C(=O)O)CN2Cc1ccccc1 (stereo not drawn) [Compound 140] = 11 to 31%

---

Attribute: remaining activity at 25 µM
target: E. coli CsgA (Escherichia coli); construct: made in house; host or cells: E. coli NEB 3016 slyD::kan, pET11d; test: In vitro ThioflavinT assay of CsgA aggregation (CsgA ThT Assay); type: biochemical; settings: read-out: CsgA ThT Assay (10 μM CsgA) % Control AUC at 1005 minutes, 25 μM (activity range), CsgA 10 μM, black plates; compound 25 μM; 1005 minutes; class symbol
measured_metric: remaining activity at 25 µM

* CN(C)Cc1c(Cc2cccc3ccccc23)c(-c2cccc(C(F)(F)F)c2)c2n(c1=O)C(C(=O)O)CS2(=O)=O (centres unmarked) | > 60%
* CCc1c(Cc2cccc3ccccc23)c(-c2cccc(C(F)(F)F)c2)c2n(c1=O)C(C(=O)O)CN([C@H]1CC[C@@H](O)CC1)S2(=O)=O (some centres unmarked) | 31 to 60%
* CN1CC(C(=O)O)n2c(c(-c3cccc(C(F)(F)F)c3)c(Cc3cccc4ccccc34)c(N)c2=O)S1(=O)=O (centres unmarked) | 11 to 31%
* CNC(=O)CCCCN1CC(C(=O)O)n2c(c(-c3cccc(C(F)(F)F)c3)c(Cc3cccc4ccccc34)cc2=O)S1(=O)=O (centres unmarked) | > 60%
* CNC(=O)CCCN1CC(C(=O)O)n2c(c(-c3cccc(C(F)(F)F)c3)c(Cc3cccc4ccccc34)cc2=O)S1(=O)=O (centres unmarked) | > 60%
* CN1CC(C(=O)O)n2c(c(-c3cccc(C(F)(F)F)c3)c(Cc3cccc4ccccc34)c(Br)c2=O)S1(=O)=O (centres unmarked) | 31 to 60%
* CN(C)Cc1c(Cc2cccc3ccccc23)c(-c2cccc(C(F)(F)F)c2)c2n(c1=O)C(C(=O)O)CN(C)S2(=O)=O (centres unmarked) | 11 to 31%
* CCc1c(Cc2cccc3ccccc23)c(-c2cccc(C(F)(F)F)c2)c2n(c1=O)C(C(=O)O)CN(CCCCO)S2(=O)=O (centres unmarked) | 31 to 60%
* O=C(O)C1CN(CCCCCO)S(=O)(=O)c2c(-c3cccc(C(F)(F)F)c3)c(Cc3cccc4ccccc34)c(NC3CCCC3)c(=O)n21 (centres unmarked) | 31 to 60%
* O=C(c1nc(=O)n2c(c1-c1cccc(C(F)(F)F)c1)SCC2C(=O)O)c1cccc2ccccc12 (centres unmarked) | > 60%
* Nc1c(Cc2cccc3ccccc23)c(-c2cccc(C(F)(F)F)c2)c2n(c1=O)C(C(=O)O)CS2 (racemic) [Compound 020] | 11 to 31%
* O=C(O)C1CNc2c(-c3cccc(C(F)(F)F)c3)c(Cc3cccc4ccccc34)cc(=O)n21 (centres unmarked) | > 60%
* O=C(O)CC1CSc2c(-c3cccc(C(F)(F)F)c3)c(Cc3cccc4ccccc34)cc(=O)n21 (centres unmarked) | 11 to 31%
* C=Cc1c(Cc2cccc3ccccc23)c(-c2cccc(C(F)(F)F)c2)c2n(c1=O)C(C(=O)O)CN(C)S2(=O)=O (centres unmarked) | 11 to 31%
* CCCN1CC(C(=O)O)n2c(c(-c3cccc(C(F)(F)F)c3)c(Cc3cccc4ccccc34)cc2=O)S1(=O)=O (racemic) | 31 to 60%
* O=C(O)[C@H]1CNS(=O)(=O)c2c(-c3cccc(C(F)(F)F)c3)c(Cc3cccc4ccccc34)cc(=O)n21 (single isomer, unassigned) [Compound 009b] | > 60%
* O=C(O)CCCN1CC(C(=O)O)n2c(c(-c3cccc(C(F)(F)F)c3)c(Cc3cccc4ccccc34)cc2=O)S1(=O)=O (centres unmarked) | > 60%
* C/C=C/c1c(Cc2cccc3ccccc23)c(-c2cccc(C(F)(F)F)c2)c2n(c1=O)C(C(=O)O)CN(C)S2(=O)=O (centres unmarked) | 31 to 60%
* CN1CC(C(=O)O)n2c(c(-c3cccc(C(F)(F)F)c3)c(Cc3cccc4ccccc34)c(C(O)CO)c2=O)S1(=O)=O (centres unmarked) | > 60%
* CN1CC(C(=O)O)n2c(c(-c3cccc(C(F)(F)F)c3)c(Cc3ccc(NS(C)(=O)=O)c4ccccc34)cc2=O)S1(=O)=O (centres unmarked) | > 60%
* O=C(O)C1CN(C[C@H](O)[C@@H](O)[C@H](O)[C@H](O)CO)S(=O)(=O)c2c(-c3cccc(C(F)(F)F)c3)c(Cc3cccc4ccccc34)cc(=O)n21 (mixture of isomers) | > 60%
* O=C(O)C1CN(C[C@@H](O)CO)S(=O)(=O)c2c(-c3cccc(C(F)(F)F)c3)c(Cc3cccc4ccccc34)cc(=O)n21 (mixture of isomers) [Compound 065b] | > 60%
* O=C(O)C1CSc2c(-c3cccc(C(F)(F)F)c3)c(Cc3cccc4ccccc34)nc(=O)n21 (centres unmarked) | > 60%
* CCc1c(Cc2cccc3ccccc23)c(-c2cccc(C(F)(F)F)c2)c2n(c1=O)C(C(=O)O)CN(CCCCCO)S2(=O)=O (centres unmarked) | 31 to 60%
* O=C(O)C1CSc2c(-c3cccc(C(F)(F)F)c3)c(Cc3cccc4ccccc34)cc(=S)n21 (centres unmarked) | 31 to 60%
* Cn1c(=O)c2c(nc(CCCCN3CC(C(=O)O)n4c(c(-c5cccc(C(F)(F)F)c5)c(Cc5cccc6ccccc56)cc4=O)S3(=O)=O)n2C)n(C)c1=O (centres unmarked) | 31 to 60%

---

# inhibition at 100 µM listing for each entry below
molecular target: human α-synuclein (Homo sapiens, UniProt P37840); construct: the full-length gene for untagged human α-synuclein was inserted; made in house; host or cells: E. coli BL21(DE3), plasmid derived from pT7 or pET11a; assay: Cell-free Thioflavin T assay of α-synuclein aggregation (αSyn ThT Assay); type: biochemical; conditions: class symbol; αSyn 50 μM, compounds 100 μM; read-out: αSyn ThT Assay % inhibition, activity range
measured_metric: inhibition at 100 µM

• CCCNC(=O)c1c(Cc2cccc3ccccc23)c(-c2cccc(C(F)(F)F)c2)c2n(c1=O)C(C(=O)O)CN(C)S2(=O)=O (stereo not shown) = > 60%
• CCc1c(Cc2cccc3ccccc23)c(-c2cccc(C(F)(F)F)c2)c2n(c1=O)C(C(=O)O)CN2Cc1ccccc1 (stereo not shown) = 31 to 60%
• CCCN1CC(C(=O)O)n2c(c(-c3cccc(C(F)(F)F)c3)c(Cc3cccc4ccccc34)c(OCC)c2=O)S1(=O)=O (stereo not shown) = > 60%
• COc1cc(Cc2cc(=O)n3c(c2-c2cccc(C(F)(F)F)c2)N(Cc2ccccc2)CC3C(=O)O)c2ccccc2c1 (stereo not shown) = 31 to 60%
• NC(=O)c1c(Cc2cccc3ccccc23)c(-c2cccc(C(F)(F)F)c2)c2n(c1=O)C(C(=O)O)CN(CCCO)S2(=O)=O (stereo not shown) = > 60%
• CC(C)CN1CC(C(=O)O)n2c1c(-c1cccc(C(F)(F)F)c1)c(Cc1cccc3ccccc13)c(Cl)c2=O (stereo not shown) = 31 to 60%
• O=C(O)C1CN(Cc2ccccc2)c2c(-c3cccc(C(F)(F)F)c3)c(Cc3cccc4ccccc34)cc(=O)n21 (stereo not shown) = 31 to 60%
• O=C(O)C1CN(Cc2ccccc2)c2c(-c3cccc(Br)c3)c(Cc3cccc4ccccc34)c(Cl)c(=O)n21 (stereo not shown) = > 60%
• COc1cccc(CN2CC(C(=O)O)n3c2c(-c2cccc(C(F)(F)F)c2)c(Cc2cccc4ccccc24)c(Cl)c3=O)c1 (stereo not shown) = 31 to 60%
• O=C(O)C1CN(Cc2cccc(O)c2)c2c(-c3cccc(C(F)(F)F)c3)c(Cc3cccc4ccccc34)c(Cl)c(=O)n21 (stereo not shown) = > 60%
• O=C(O)C1CN(Cc2ccc(CO)cc2)c2c(-c3cccc(C(F)(F)F)c3)c(Cc3cccc4ccccc34)c(Cl)c(=O)n21 (stereo not shown) = 11 to 30%
• CC(C)NC(=O)c1c(Cc2cccc3ccccc23)c(-c2cccc(C(F)(F)F)c2)c2n(c1=O)C(C(=O)O)CN(C)S2(=O)=O (stereo not shown) = > 60%
• O=C(O)C1CN(Cc2ccc(-c3ccccc3)cc2)c2c(-c3cccc(C(F)(F)F)c3)c(Cc3cccc4ccccc34)c(Cl)c(=O)n21 (stereo not shown) = 31 to 60%
